condition_label: human, serum
Form field: Hepatotoxicity (acute) (one value per entry).
Respond with the number and no other words.

Reference set (5 entries):
C[C@]12C=CC(=O)C=C1CC[C@@H]1[C@@H]2CC[C@@]2(C)[C@H]1CC[C@]2(C)O (stereo in doubt; form 2) [METHANDROSTENOLONE] | 1
CCCCCN(C)CCC(O)(P(=O)(O)O)P(=O)(O)O | 0
CC(CCc1ccccc1)NCC(O)c1ccc(O)c(C(N)=O)c1 (stereo not drawn) | 6
CC(=O)CC(c1ccccc1)c1c(O)c2ccccc2oc1=O (stereo not drawn) | 6
Cc1c(F)c(N2CCNC(C)C2)cc2c1c(=O)c(C(=O)O)cn2C1CC1 (stereo not drawn) | 0

In the following, a different molecule is considered.
INPUT: Answer with the recorded Hepatotoxicity (acute) of Sc1ncnc2nc[nH]c12 [MERCAPTOPURINE ANHYDROUS] only.
OUTPUT: 30

====

test_summary: Highest frequency of moderate liver toxicity observed during clinical trials, expressed as a percentage. [column '% BIOL' in source]
condition_label: human
measured_parameter: Hepatotoxicity (moderate) (%)
Enter your answer as a number in %; do not include the unit.

Reference set (3 entries):
C[S+](CC[C@H](N)C(=O)[O-])C[C@H]1O[C@@H](n2cnc3c(N)ncnc32)[C@H](O)[C@@H]1O (stereo partly specified) | 5
Cc1ccc(S(=O)(=O)NC(=O)NN2CC3CCCC3C2)cc1 (stereo unspecified) [GLICLAZIDE] | 0
CCCc1nn(C)c2c(=O)[nH]c(-c3cc(S(=O)(=O)N4CCN(C)CC4)ccc3OCC)nc12 | 0

INPUT: Answer with the recorded Hepatotoxicity (moderate) of CN(C)c1ccc(O)c2c1C[C@H]1C[C@H]3[C@H](N(C)C)C(O)=C(C(N)=O)C(=O)[C@@]3(O)C(O)=C1C2=O only.
OUTPUT: 41.7

INPUT: Answer with the recorded Hepatotoxicity (moderate) of Nc1ccc(/N=N/c2ccccc2)c(N)n1 only.
OUTPUT: 0

INPUT: Answer with the recorded Hepatotoxicity (moderate) of C[C@@H](CN1CC(=O)NC(=O)C1)N1CC(=O)NC(=O)C1 only.
OUTPUT: 13

====

condition_label: human
Form field: Hepatotoxicity (severe hepatitis) (one value per entry).
Respond with the number and no other words.

Reference set (8 entries):
CCNC1=Nc2ccc(Cl)cc2C(C)(c2ccccc2)O1 (stereo not given) | 0
CCCCOCC(CN1C(=O)N(CC(COCCCC)OC(N)=O)C(=O)C(CC)(c2ccccc2)C1=O)OC(N)=O (stereo not given) [DIFEBARBAMATE] | 5
O=C(O)c1cc(=O)c2c(OCC(O)COc3cccc4oc(C(=O)O)cc(=O)c34)cccc2o1 | 0
CN1CCC(=C2c3ccccc3CC(=O)c3sccc32)CC1 | 0
CC(=O)Oc1cccc2c1C(=O)c1c(OC(C)=O)cc(C(=O)O)cc1C2=O | 1
CCN(CC)C(=O)C1(c2ccccc2)CC1CN (stereo not given) | 0
N=C(N)NCC1COc2ccccc2O1 (stereo not given) | 1
CCOC(=O)NC1=C(N2CC2)C(=O)C(NC(=O)OCC)=C(N2CC2)C1=O | 0

INPUT: Answer with the recorded Hepatotoxicity (severe hepatitis) of CCN1CCN(C(=O)N[C@@H](C(=O)N[C@@H]2C(=O)N3[C@@H]2SC(C)(C)[C@@H]3C(=O)O)c2ccccc2)C(=O)C1=O.C[C@]1(Cn2ccnn2)[C@H](C(=O)O)N2C(=O)C[C@H]2S1(=O)=O only.
OUTPUT: 0

INPUT: Answer with the recorded Hepatotoxicity (severe hepatitis) of CCc1nc(N)nc(N)c1-c1ccc(Cl)cc1.Nc1ccc(S(=O)(=O)c2ccc(N)cc2)cc1 only.
OUTPUT: 0

INPUT: Answer with the recorded Hepatotoxicity (severe hepatitis) of CC(=O)OCOC(=O)C1=C(COC(N)=O)SC2[C@H]([C@H](C)O)C(=O)N12 (stereo not given in full) only.
OUTPUT: 0

INPUT: Answer with the recorded Hepatotoxicity (severe hepatitis) of CCc1oc2ccccc2c1C(=O)c1ccc(O)cc1 only.
OUTPUT: 2

INPUT: Answer with the recorded Hepatotoxicity (severe hepatitis) of O=C1CN=C(c2ccccc2)c2c(sc3c2CCCC3)N1 only.
OUTPUT: 0

====

condition_label: human
measured_parameter: Hepatotoxicity (choleostasis)
Respond with the number and no other words.

Reference set (3 entries):
CCOC(=O)NC1=C(N2CC2)C(=O)C(NC(=O)OCC)=C(N2CC2)C1=O [DIAZIQUONE] | 0
CC1=C(C(=O)O)N2C(=O)[C@@H](NC(=O)[C@H](N)c3ccccc3)[C@H]2SC1 [CEPHALEXIN ANHYDROUS] | 4
Cc1c(N(C)C)c(=O)n(-c2ccccc2)n1C [AMINOPYRINE] | 1

In the following, a different compound is considered.
INPUT: Answer with the recorded Hepatotoxicity (choleostasis) of O=C(COCCOCCOCC(=O)Nc1c(I)cc(I)c(C(=O)O)c1I)Nc1c(I)cc(I)c(C(=O)O)c1I [IOTROXIC ACID] only.
OUTPUT: 0

====

test_summary: Highest frequency of acute liver toxicity observed during clinical trials, expressed as a percentage. [column '% AIGUE' in source]
condition_label: human, Liver
measured_parameter: Hepatotoxicity (acute) (%)
Enter your answer as a number in %; do not include the unit.

Reference set (4 entries):
CC1(C)NC(=O)N(c2ccc([N+](=O)[O-])c(C(F)(F)F)c2)C1=O [NILUTAMIDE] | 0
OC(CCN1CCCCC1)(c1ccccc1)C1CCCCC1 (centres undefined) | 0
COC(=O)[C@H](c1ccccc1Cl)N1CCc2sccc2C1 | 0
CCCCNC(=N)NC(=N)N | 0

INPUT: Answer with the recorded Hepatotoxicity (acute) of CC1=C(/C=C/C(C)=C/C=C/C(C)=C/CO)C(C)(C)CCC1 only.
OUTPUT: 0

INPUT: Answer with the recorded Hepatotoxicity (acute) of O=C1CN(/N=C/c2ccc([N+](=O)[O-])o2)C(=O)N1 only.
OUTPUT: 0

INPUT: Answer with the recorded Hepatotoxicity (acute) of COc1nc(C)nc(Cl)c1N=C1NCCN1 only.
OUTPUT: 0

INPUT: Answer with the recorded Hepatotoxicity (acute) of Nc1ccn([C@@H]2CS[C@H](CO)O2)c(=O)n1 only.
OUTPUT: 12.5

====

Form field: Hepatotoxicity (association with vascular disease) (one value per entry).
condition_label: human
Respond with the number and no other words.

INPUT: Answer with the recorded Hepatotoxicity (association with vascular disease) of C=CCC(C(=O)NC(N)=O)C(C)C (stereo not given) only.
OUTPUT: 0

INPUT: Answer with the recorded Hepatotoxicity (association with vascular disease) of COc1cc([C@@H]2c3cc4c(cc3[C@@H](O[C@@H]3O[C@@H]5CO[C@@H](c6cccs6)O[C@H]5[C@H](O)[C@H]3O)[C@H]3COC(=O)[C@H]23)OCO4)cc(OC)c1O [TENIPOSIDE] only.
OUTPUT: 1

====

Form field: Hepatotoxicity (choleostasis) (one value per entry).
condition_label: human

CCCCc1nc(Cl)c(CO)n1Cc1ccc(-c2ccccc2-c2nn[nH]n2)cc1 | 0
CCOc1cc(CC(=O)N[C@@H](CC(C)C)c2ccccc2N2CCCCC2)ccc1C(=O)O [REPAGLINIDE] | 0
CCCc1nn(C)c2c(=O)[nH]c(-c3cc(S(=O)(=O)N4CCN(C)CC4)ccc3OCC)nc12 | 0
CN1CCN(CCCN2c3ccccc3Sc3ccc(S(=O)(=O)N(C)C)cc32)CC1 | 1
CCOC(=O)OC(C)OC(=O)[C@@H]1N2C(=O)[C@@H](NC(=O)[C@H](N)c3ccccc3)[C@H]2SC1(C)C (some centres not stated) | 0
COc1c(N2CCNC(C)C2)c(F)cc2c(=O)c(C(=O)O)cn(C3CC3)c12 (configuration not stated) | 2
O=C1OCCN1/N=C/c1ccc([N+](=O)[O-])o1 | 3
CCNNC(=O)[C@@H]1[C@H](c2cc(OC)c(OC)c(OC)c2)c2cc3c(cc2[C@H](O)[C@H]1CO)OCO3 [MITOPODOZIDE] | 0
Cc1cc(CC(=O)O)n(C)c1C(=O)c1ccc(Cl)cc1 [ZOMEPIRAC] | 0
N[C@@H](C(=O)N[C@@H]1C(=O)N2C(C(=O)O)=C(Cl)CC[C@H]12)c1ccccc1 [LORACARBEF ANHYDROUS] | 1

INPUT: Answer with the recorded Hepatotoxicity (choleostasis) of CCCCN1CCCCC1C(=O)Nc1c(C)cccc1C (configuration not stated) only.
OUTPUT: 2

INPUT: Answer with the recorded Hepatotoxicity (choleostasis) of CN(C)CCc1c[nH]c2ccc(C[C@H]3COC(=O)N3)cc12 only.
OUTPUT: 0

INPUT: Answer with the recorded Hepatotoxicity (choleostasis) of Nc1cc(-c2ccncc2)c[nH]c1=O only.
OUTPUT: 2

INPUT: Answer with the recorded Hepatotoxicity (choleostasis) of CN1CCC[C@@H]1CCO[C@](C)(c1ccccc1)c1ccc(Cl)cc1 only.
OUTPUT: 0

INPUT: Answer with the recorded Hepatotoxicity (choleostasis) of CN1C(=O)CC(=O)N(c2ccccc2)c2cc(Cl)ccc21 only.
OUTPUT: 0

INPUT: Answer with the recorded Hepatotoxicity (choleostasis) of COc1cc2nc(N3CCN(C(=O)C4CCCO4)CC3)nc(N)c2cc1OC (configuration not stated) only.
OUTPUT: 0

INPUT: Answer with the recorded Hepatotoxicity (choleostasis) of CO[C@H]1/C=C/O[C@@]2(C)Oc3c(C)c(O)c4c(O)c(c5c(nc6cc(C)ccn65)c4c3C2=O)NC(=O)/C(C)=C\C=C\[C@H](C)[C@H](O)[C@@H](C)[C@@H](O)[C@@H](C)[C@H](OC(C)=O)[C@@H]1C only.
OUTPUT: 0
